- MEASURED ON: Dual specificity protein kinase CLK1 (Mus musculus, UniProt P22518)
- Sequence (P22518 whole entry): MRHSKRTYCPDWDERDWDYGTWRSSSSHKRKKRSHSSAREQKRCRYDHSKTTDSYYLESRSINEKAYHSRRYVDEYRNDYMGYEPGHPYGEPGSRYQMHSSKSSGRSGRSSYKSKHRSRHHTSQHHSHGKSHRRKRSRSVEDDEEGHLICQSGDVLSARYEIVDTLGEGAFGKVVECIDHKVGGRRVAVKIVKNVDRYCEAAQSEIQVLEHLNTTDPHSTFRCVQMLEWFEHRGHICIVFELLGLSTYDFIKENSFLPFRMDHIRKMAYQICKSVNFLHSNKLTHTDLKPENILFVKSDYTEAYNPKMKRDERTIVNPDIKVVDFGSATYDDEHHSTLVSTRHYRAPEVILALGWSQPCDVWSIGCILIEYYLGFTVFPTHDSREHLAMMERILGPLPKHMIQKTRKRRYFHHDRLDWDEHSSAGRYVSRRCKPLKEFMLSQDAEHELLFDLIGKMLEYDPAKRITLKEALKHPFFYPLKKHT
- ASSAY PROCEDURE: Inhibition of GST-tagged mouse recombinant CLK1 expressed in Escherichia coli using GRSRSRSRSRSR as substrate
PARAMETER MEASURED: IC50

>>> test_result("CN1CCCCC1c1c(O)cc(O)c2c(=O)cc(-c3ccccc3)oc12 (racemic)")
"8.5 µM"
>>> test_result("CN1CCCC[C@H]1c1c(O)cc(O)c2c(=O)cc(-c3ccccc3)oc12")
"2.1 µM"
>>> test_result("O=c1cc(-c2ccccc2)oc2c(C3CCCCN3)c(O)cc(O)c12 (racemic)")
"> 10 µM"
>>> test_result("COc1cc(O)c(C2CCCCN2)c2oc(-c3ccccc3)cc(=O)c12 (stereo not given)")
"> 10 µM"
>>> test_result("CCCCC[C@H](NC)c1c(O)cc(O)c2c(=O)cc(-c3ccccc3)oc12")
"> 10 µM"
>>> test_result("O=c1cc(-c2ccccc2)oc2c(C3CCCN3)c(O)cc(O)c12 (racemic)")
"> 10 µM"
>>> test_result("CN1CCC[C@@H]1c1c(O)cc(O)c2c(=O)cc(-c3ccccc3)oc12")
"7.4 µM"
>>> test_result("CCCCC[C@@H](NC)c1c(O)cc(O)c2c(=O)cc(-c3ccccc3)oc12")
"> 10 µM"
>>> test_result("COc1cc(O)c(C2CCCCN2C)c2oc(-c3ccccc3)cc(=O)c12 (stereo not given) [BUCHENAVIANINE]")
"> 10 µM"
>>> test_result("CN1CCCC[C@@H]1c1c(O)cc(O)c2c(=O)cc(-c3ccccc3)oc12")
"> 10 µM"
